assay: Volume of distribution at steady state in dog at 1 mg/kg, iv; assay type: ADME, organism-based, Canis lupus familiaris; set-up: dose 1 mg/kg, route intravenous; conditions: in vivo, read-out: Vdss
Attribute measured: Vd
Answer format: value, then unit.

Request: Name the recorded Vd of the item O=C(Nc1nc2cccc(-c3ccc(CN4CCS(=O)(=O)CC4)cc3)n2n1)C1CC1 [FILGOTINIB] in your answer.
Result: 1.7 L/kg

---

species on record: Homo sapiens; assay: Selectivity index, ratio of IC50 for human recombinant TYK2 to IC50 for human recombinant JAK1
Entries whose Ratio IC50 is below 6 take criterion met; entries at or above 6 take criterion not met.

Sample answers from the record:
Request: Lab log: compare recorded Ratio IC50 with 6; is it strictly lower for `O=C(Nc1nc2cccc(-c3cccc(OCc4ccccc4)c3)n2n1)C1CC1` ?
Result: criterion not met

Request: Lab log: compare recorded Ratio IC50 with 6; is it strictly lower for `COc1ccc(-c2cccc3nc(NC(=O)C4CC4)nn23)cc1` ?
Result: criterion not met

---
Request: Lab log: compare recorded Ratio IC50 with 6; is it strictly lower for `O=C(Nc1nc2cccc(-c3ccccc3)n2n1)C1CC1` ?
Result: criterion met

Request: Lab log: compare recorded Ratio IC50 with 6; is it strictly lower for `O=C(NCCc1ccn(-c2ccccc2)n1)c1ccc(-c2cccc3nc(NC(=O)C4CC4)nn23)cc1` ?
Result: criterion not met

Request: Lab log: compare recorded Ratio IC50 with 6; is it strictly lower for `O=C(Nc1nc2cccc(-c3ccc(Cl)cc3)n2n1)C1CC1` ?
Result: criterion not met

Request: Lab log: compare recorded Ratio IC50 with 6; is it strictly lower for `COc1ccc(-c2cccc3nc(NC(=O)C4CC4)nn23)cn1` ?
Result: criterion not met

Request: Lab log: compare recorded Ratio IC50 with 6; is it strictly lower for `COc1ccccc1-c1cccc2nc(NC(=O)C3CC3)nn12` ?
Result: criterion met

Request: Lab log: compare recorded Ratio IC50 with 6; is it strictly lower for `N#CCc1ccccc1NCc1ccc(-c2cccc3nc(NC(=O)C4CC4)nn23)cc1` ?
Result: criterion not met

Request: Lab log: compare recorded Ratio IC50 with 6; is it strictly lower for `COCc1cccc(-c2cccc3nc(NC(=O)C4CC4)nn23)c1` ?
Result: criterion met

Request: Lab log: compare recorded Ratio IC50 with 6; is it strictly lower for O=C(Nc1nc2cccc(-c3ccc(CNC4CCS(=O)(=O)C4)cc3)n2n1)C1CC1 (stereo unspecified) ?
Result: criterion not met

Request: Lab log: compare recorded Ratio IC50 with 6; is it strictly lower for `O=C(Nc1nc2cccc(-c3ccc(CNC(=O)C(F)(F)F)cc3)n2n1)C1CC1` ?
Result: criterion not met

Request: Lab log: compare recorded Ratio IC50 with 6; is it strictly lower for `O=C(Nc1nc2cccc(-c3ccc(CN4CCC(F)(F)CC4)cc3)n2n1)C1CC1` ?
Result: criterion met

Request: Lab log: compare recorded Ratio IC50 with 6; is it strictly lower for `O=C(Nc1nc2cccc(-c3cccc(Cl)c3)n2n1)C1CC1` ?
Result: criterion met

---

biological target: Cytochrome P450 2D6 (Homo sapiens)
Sequence (P10635 whole entry): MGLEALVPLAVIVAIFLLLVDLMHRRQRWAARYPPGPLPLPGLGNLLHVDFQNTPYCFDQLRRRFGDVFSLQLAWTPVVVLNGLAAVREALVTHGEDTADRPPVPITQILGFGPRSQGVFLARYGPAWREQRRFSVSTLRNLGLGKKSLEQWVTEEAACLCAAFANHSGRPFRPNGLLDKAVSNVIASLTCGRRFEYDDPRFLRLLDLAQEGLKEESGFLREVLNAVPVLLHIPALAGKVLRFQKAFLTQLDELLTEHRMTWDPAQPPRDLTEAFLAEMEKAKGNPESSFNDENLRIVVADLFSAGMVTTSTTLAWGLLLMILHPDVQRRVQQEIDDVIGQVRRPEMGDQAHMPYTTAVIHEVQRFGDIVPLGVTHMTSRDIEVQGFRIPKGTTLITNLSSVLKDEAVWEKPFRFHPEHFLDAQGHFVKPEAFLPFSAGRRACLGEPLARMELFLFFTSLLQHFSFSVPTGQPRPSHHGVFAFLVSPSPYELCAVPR
Attribute measured: IC50

Request: Name the value of IC50 reported for `O=C(Nc1nc2cccc(-c3ccc(CN4CCS(=O)(=O)CC4)cc3)n2n1)C1CC1` when tested on Cytochrome P450 2D6 (Homo sapiens).
Result: > 70 µM
